B1: RAB11A (parent)
chain: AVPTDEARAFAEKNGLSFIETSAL

Variants of: B1
Assay: protein stability index of a GFP-peptide fusion (GPS, HEK-293T) (PSI 1-6); higher = more stable;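 note: lentivirally expressed fusions sorted by FACS into six bins by GFP to DsRed ratio, PSI derived from sequencing read proportions per bin multiplied by bin number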
Settings: c terminus: a fixed tail appended
recorded.endpoint: protein stability index
One number for each entry.

A7Q: 2.87
G15H: 2.15
F18W: 3.46
E12I: 1.39
E20W: 1.44

List protein stability index for every entry below, keeping the order given.
1. A7Y
2. A1W
3. S17F
4. V2S
5. L16S
6. A7W

## Result
[2.45, 1.8, 2.62, 2.48, 4.35, 2.09]
